- TEST SYSTEM: Phosphatidylinositol 4,5-bisphosphate 3-kinase catalytic subunit gamma isoform (Homo sapiens, UniProt P48736)
- Sequence (P48736 whole entry, canonical isoform): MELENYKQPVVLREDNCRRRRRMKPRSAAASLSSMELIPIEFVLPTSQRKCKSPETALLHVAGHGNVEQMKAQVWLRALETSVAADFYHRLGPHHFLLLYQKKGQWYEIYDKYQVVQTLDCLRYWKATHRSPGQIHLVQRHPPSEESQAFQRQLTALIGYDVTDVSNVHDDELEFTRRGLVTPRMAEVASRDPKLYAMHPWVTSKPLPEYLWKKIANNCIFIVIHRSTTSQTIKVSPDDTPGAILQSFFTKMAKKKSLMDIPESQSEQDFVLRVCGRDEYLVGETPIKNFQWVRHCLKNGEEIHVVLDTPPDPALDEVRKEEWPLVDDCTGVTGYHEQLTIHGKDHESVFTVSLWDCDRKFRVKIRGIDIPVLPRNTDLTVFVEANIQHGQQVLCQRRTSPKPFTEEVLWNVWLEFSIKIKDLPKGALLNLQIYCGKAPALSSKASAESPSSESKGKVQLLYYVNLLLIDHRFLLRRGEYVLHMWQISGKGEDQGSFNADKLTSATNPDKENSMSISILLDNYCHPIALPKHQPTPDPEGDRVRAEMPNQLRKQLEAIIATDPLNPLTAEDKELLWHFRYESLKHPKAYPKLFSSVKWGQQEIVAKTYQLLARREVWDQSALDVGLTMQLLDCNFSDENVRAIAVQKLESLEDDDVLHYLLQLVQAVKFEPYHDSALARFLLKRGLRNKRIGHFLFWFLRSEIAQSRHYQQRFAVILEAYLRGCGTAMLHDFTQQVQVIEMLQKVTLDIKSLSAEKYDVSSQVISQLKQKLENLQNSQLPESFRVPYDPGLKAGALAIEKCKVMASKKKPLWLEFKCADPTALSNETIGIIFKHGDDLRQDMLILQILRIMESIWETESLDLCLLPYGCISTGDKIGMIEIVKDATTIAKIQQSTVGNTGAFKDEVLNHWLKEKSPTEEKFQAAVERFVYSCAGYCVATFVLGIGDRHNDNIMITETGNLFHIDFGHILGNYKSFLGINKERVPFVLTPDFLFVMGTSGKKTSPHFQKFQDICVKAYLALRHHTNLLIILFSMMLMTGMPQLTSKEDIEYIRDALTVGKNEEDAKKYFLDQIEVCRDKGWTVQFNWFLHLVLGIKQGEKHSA
- RUN DESCRIPTION: Inhibition of PI3Kgamma (unknown origin) after 1 hr by ADP-Glo Luminescent assay
pIC50: −log10 of the molar value.

ITEM SMILES	pIC50
CC(=O)N1CCN(c2ccc(Nc3c(C(N)=O)cnc4ccc(-c5cnc6ccccc6c5)cc34)cc2C(F)(F)F)CC1	6.03

====

- Tested on: MCF7
- RUN DESCRIPTION: cells
- ASSAY CONDITIONS: Homo sapiens, MCF7, 72 h
pIC50: −log10 of the molar value.

ITEM SMILES	pIC50
COc1ccc(-c2ccc3ncc(C(N)=O)c(Nc4ccc(C(C)(C)C#N)cc4)c3c2)cn1	5.80
CNC(=O)c1cnc2ccc(-c3ccc(N)nc3)cc2c1Nc1ccc(C(C)(C)C#N)cc1	6.31
CN1CCN(CC(=O)N2CCN(c3ccc(Nc4c(C(N)=O)cnc5ccc(-c6cnc7ccccc7c6)cc45)cc3C(F)(F)F)CC2)CC1	6.36
CC(C)(C#N)c1ccc(Nc2c(C(N)=O)cnc3ccc(-c4ccc(N)nc4)cc23)cc1	6.28
Cl.NC(=O)c1cnc2ccc(-c3cnc4ccccc4c3)cc2c1Nc1ccc(N2CCNCC2)c(C(F)(F)F)c1	6.62
Cn1nccc1-c1ccc2ncc(C(N)=O)c(Nc3ccc(C(C)(C)C#N)cc3)c2c1	5.90
CCC(=O)N1CCN(c2ccc(Nc3c(C(N)=O)cnc4ccc(-c5ccc(N)nc5)cc34)cc2C(F)(F)F)CC1	6.24
CC(=O)N1CCN(c2ccc(Nc3c(C(N)=O)cnc4ccc(-c5cnc6ccccc6c5)cc34)cc2C(F)(F)F)CC1	6.36

====

- RUN DESCRIPTION: Metabolic stability in human liver microsomes after 60 mins
- Type: ADME
- ASSAY CONDITIONS: read-out: Stability
MEASURED ATTRIBUTE: remaining at 1 h (%)

ITEM SMILES	MEASURED ATTRIBUTE	READING UNIT	READING
Cl.NC(=O)c1cnc2ccc(-c3cnc4ccccc4c3)cc2c1Nc1ccc(N2CCNCC2)c(C(F)(F)F)c1	remaining at 1 h	%	73

====

- TEST SYSTEM: Phosphatidylinositol 4,5-bisphosphate 3-kinase catalytic subunit beta isoform (Homo sapiens, UniProt P42338)
- Sequence (P42338 whole entry, canonical isoform): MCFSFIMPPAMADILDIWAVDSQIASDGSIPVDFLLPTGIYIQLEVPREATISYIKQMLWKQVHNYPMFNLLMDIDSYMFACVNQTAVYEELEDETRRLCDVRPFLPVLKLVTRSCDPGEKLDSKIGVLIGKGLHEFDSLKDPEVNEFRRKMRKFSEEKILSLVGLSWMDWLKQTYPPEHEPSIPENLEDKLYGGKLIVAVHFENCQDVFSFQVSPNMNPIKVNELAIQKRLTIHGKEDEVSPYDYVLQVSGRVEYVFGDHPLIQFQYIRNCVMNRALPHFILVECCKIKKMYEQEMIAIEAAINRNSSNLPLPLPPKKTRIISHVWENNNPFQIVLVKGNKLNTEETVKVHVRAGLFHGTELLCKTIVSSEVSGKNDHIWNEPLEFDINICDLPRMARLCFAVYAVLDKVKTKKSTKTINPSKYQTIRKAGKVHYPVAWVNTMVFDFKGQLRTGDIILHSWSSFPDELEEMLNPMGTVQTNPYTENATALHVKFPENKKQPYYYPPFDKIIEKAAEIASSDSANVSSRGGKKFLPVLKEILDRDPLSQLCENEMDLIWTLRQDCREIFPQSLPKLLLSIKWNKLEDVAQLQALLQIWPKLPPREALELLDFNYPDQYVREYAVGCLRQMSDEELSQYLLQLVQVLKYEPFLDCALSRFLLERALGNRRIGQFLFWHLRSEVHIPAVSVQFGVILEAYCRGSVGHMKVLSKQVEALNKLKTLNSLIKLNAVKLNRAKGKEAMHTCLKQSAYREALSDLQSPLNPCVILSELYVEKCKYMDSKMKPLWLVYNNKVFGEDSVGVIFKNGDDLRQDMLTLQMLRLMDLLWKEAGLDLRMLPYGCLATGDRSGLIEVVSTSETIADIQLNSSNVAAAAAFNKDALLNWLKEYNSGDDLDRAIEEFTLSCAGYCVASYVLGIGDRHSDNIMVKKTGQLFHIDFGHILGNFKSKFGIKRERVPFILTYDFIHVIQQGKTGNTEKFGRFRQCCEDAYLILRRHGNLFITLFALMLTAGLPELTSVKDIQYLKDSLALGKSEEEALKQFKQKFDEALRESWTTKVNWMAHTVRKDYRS
- RUN DESCRIPTION: Inhibition of PI3Kbeta (unknown origin) after 1 hr by ADP-Glo Luminescent assay
pIC50: −log10 of the molar value.
MEASURED ATTRIBUTE: pIC50

ITEM SMILES	MEASURED ATTRIBUTE	READING
CC(=O)N1CCN(c2ccc(Nc3c(C(N)=O)cnc4ccc(-c5cnc6ccccc6c5)cc34)cc2C(F)(F)F)CC1	pIC50	< 5.30

====

- RUN DESCRIPTION: Metabolic stability in rat liver microsomes after 30 mins
- Format: ADME
- ASSAY CONDITIONS: read-out: Stability
MEASURED ATTRIBUTE: remaining at 0.5 h (%)

ITEM SMILES	MEASURED ATTRIBUTE	READING UNIT	READING
Cl.NC(=O)c1cnc2ccc(-c3cnc4ccccc4c3)cc2c1Nc1ccc(N2CCNCC2)c(C(F)(F)F)c1	remaining at 0.5 h	%	50

====

- TEST SYSTEM: Phosphatidylinositol 4,5-bisphosphate 3-kinase catalytic subunit delta isoform (Homo sapiens, UniProt O00329)
- Sequence (O00329 whole entry, canonical isoform): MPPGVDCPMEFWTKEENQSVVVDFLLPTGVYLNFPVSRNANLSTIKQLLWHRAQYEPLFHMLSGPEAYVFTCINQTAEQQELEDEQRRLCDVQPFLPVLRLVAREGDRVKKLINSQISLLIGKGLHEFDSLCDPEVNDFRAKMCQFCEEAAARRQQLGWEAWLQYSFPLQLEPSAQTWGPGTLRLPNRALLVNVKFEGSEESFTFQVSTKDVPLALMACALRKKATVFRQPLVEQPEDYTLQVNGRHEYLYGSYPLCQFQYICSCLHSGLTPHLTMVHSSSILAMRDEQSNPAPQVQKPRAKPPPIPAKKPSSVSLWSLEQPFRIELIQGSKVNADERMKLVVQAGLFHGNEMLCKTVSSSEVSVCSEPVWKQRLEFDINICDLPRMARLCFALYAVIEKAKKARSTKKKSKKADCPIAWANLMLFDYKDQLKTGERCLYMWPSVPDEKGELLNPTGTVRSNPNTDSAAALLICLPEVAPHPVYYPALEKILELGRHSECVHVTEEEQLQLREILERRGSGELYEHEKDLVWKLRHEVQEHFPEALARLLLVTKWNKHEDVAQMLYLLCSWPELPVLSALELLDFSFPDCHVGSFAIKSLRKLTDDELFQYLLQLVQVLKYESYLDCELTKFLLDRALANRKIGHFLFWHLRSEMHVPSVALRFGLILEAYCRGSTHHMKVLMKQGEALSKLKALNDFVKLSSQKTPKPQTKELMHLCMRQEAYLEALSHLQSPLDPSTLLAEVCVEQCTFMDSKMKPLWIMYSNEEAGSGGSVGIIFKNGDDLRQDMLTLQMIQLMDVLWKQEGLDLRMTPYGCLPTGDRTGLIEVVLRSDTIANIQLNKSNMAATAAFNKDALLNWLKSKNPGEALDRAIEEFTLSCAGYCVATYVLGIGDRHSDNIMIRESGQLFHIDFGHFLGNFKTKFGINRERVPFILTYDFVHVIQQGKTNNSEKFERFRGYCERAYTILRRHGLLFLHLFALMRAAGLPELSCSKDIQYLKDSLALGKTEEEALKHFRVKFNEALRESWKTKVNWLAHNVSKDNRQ
- RUN DESCRIPTION: Inhibition of PI3Kdelta (unknown origin) after 1 hr by ADP-Glo Luminescent assay
MEASURED ATTRIBUTE: IC50

ITEM SMILES	MEASURED ATTRIBUTE	READING
CC(=O)N1CCN(c2ccc(Nc3c(C(N)=O)cnc4ccc(-c5cnc6ccccc6c5)cc34)cc2C(F)(F)F)CC1	IC50	> 5 µM
